recorded-endpoint: melting point

1. N=C(N)NCCNc1c(C(=O)O)cnc2ccccc12; 267 °C
2. COC(=O)[C@H](Cc1ccc([N+](=O)[O-])cc1)NC(=S)c1c(C)cccc1Cl; 150 to 153 °C
3. Cc1oc(-c2ccccc2)nc1COc1ccc2c(-c3ccccc3)c(COc3nn(-c4ccccc4)cc3C=O)oc2c1; 176 to 177 °C
4. CC(C)(C)OC(=O)NCCc1cccc(-c2nc(=O)c3ccccc3s2)n1; 170 to 171 °C
5. C=C(C)C(=O)Oc1ccc(CNS(C)(=O)=O)cc1; 101 to 102 °C

* * *

Listing: melting point of selected compounds
recorded-endpoint: melting point

1. COc1cccc(Oc2cccc(-c3ccccc3)c2)c1; 41 to 42 °C
2. COC(=O)CC1CCc2cc(C(=O)c3ccccc3)c(O)cc21 (stereo not given); 148 to 150 °C
3. CC(=O)NC(C)(C)CNc1c(C)c(C)n2nnnc2c1[N+](=O)[O-]; 200 to 202 °C
4. CC(C)[C@@H]1CC[C@@H](C)C[C@H]1OC(=O)NCCC(C)n1cnc2c(N)nc3ccccc3c21 (stereo not given in full); 84 to 86 °C
5. CCOCN1C2=C(C(=O)CCC2)C(c2cccc([N+](=O)[O-])c2)C2=C1CCCC2=O; 222 °C
6. FC(F)(F)c1ccc(-c2cc(Oc3ccc4cc[nH]c4c3)ncn2)cc1; 206 to 209 °C
7. CCOCc1nc2c(N)nc3cc(OCC(=O)N4CCOCC4)ccc3c2n1CC(C)(C)O; 209 to 211 °C
8. CNC(=S)NCCSCc1nscc1Br; 62 to 63 °C
9. CS(=O)(=O)c1ccc(-c2cc(C(F)F)nn2-c2ccc(F)cc2)cc1F; 201 to 202 °C
10. COc1cccc(-c2ccc3c(c2)C(=O)N(Cc2cccnc2)C3=O)c1; 115 to 117 °C

* * *

recorded-endpoint: melting point

1) O=C1C[C@@H](C(=O)OCc2ccccc2)N(C(=O)OCc2ccccc2)C1; 55 to 56 °C
2) CC(C)c1ncc(CN2C(=O)C3(COc4cc5c(cc43)OCO5)c3ccccc32)o1 (centres undefined); 75 to 77 °C
3) COc1ccccc1N1CCN(CC(O)COc2cccc3c2CCCC3=O)CC1 (centres undefined); 120 °C
4) Cc1cc(-n2ccnc2)c2cccc(OCc3c(Cl)ccc(S(=O)(=O)N4CCC[C@H]4C(=O)N4CCOCC4)c3Cl)c2n1; 50 °C
5) CCOC(=O)CCC(=O)c1ccc(Cl)c(S(N)(=O)=O)c1; 94 to 95 °C
6) COc1cccc(NC(=O)NC2N=C(C)c3cccc(C)c3N(CC(=O)N3CC4CCC(CC4)C3)C2=O)c1 (centres undefined); 170 to 171 °C
7) O=C(c1ccc(O)cc1)N1CC=CCC1; 202 to 206 °C
8) c1ccc(CN2CCN(Cc3nc4ccccc4[nH]3)CC2)cc1; 195 to 201 °C
9) CC(C)c1ccc(-n2c(CC(=O)O)c(C(=O)O)c3cc(Oc4cccc(Cl)c4)ccc32)cc1; 176 to 182 °C

* * *

Listing: melting point of selected compounds
recorded-endpoint: melting point

1. O=C(O)Cc1cc(Cl)c(O)cc1F; 137 to 138 °C
2. N#CC1=C2C(=NC1=O)c1c(Sc3ccc(N)cc3)ccc3c(Sc4ccc(N)cc4)ccc2c13; 288 to 290 °C
3. CC(C)c1nc(-c2ccccc2)n(-c2ccc(F)cc2)c1C=C(Br)Br; 164 to 165 °C
4. O=[N+]([O-])c1ccc(Cl)nc1-c1ccncc1; 137 to 138 °C
5. COCCCNS(=O)(=O)NC(=O)OCc1ccccc1; 91 to 93 °C
6. CC(C)(C)OCC(O)CN (stereo unspecified); 41 to 43 °C
7. Cc1ccc(OCc2c(F)cccc2Cl)c(NC(=S)Nc2ccc(Cl)cc2)n1; 204 to 205 °C
8. COC(=O)c1cc(S(N)(=O)=O)c(OC)c2c1OCCO2; 202 to 203 °C
9. CCCN(CCC)C(C)(C)CC(C)(C)C; 43 to 45 °C
10. O=C1c2ccccc2C(=O)c2sc(-c3cccc(F)c3)nc21; > 260 °C
11. O=c1c(CCCCBr)c(O)c2cccnc2n1-c1ccccc1; 169 to 171 °C
